- Target under test: T1, PARD3B_1, Q8TEW8
- T1 sequence (Q8TEW8 196-299, limits assumed, looked up): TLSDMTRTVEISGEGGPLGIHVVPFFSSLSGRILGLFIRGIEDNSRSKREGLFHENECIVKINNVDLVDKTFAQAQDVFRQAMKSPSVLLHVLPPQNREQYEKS
- Test method notes: holdup assay
- Set-up: key: below the threshold = too weak to quantify, mostly under pKd 3.1 to 4
- Study conditions: plain residues with an end cap or a label only (N-terminal biotin on a linker: ado-ado)
Measured metric: pKd

{"Binder": "IDESKKEWLI [CNTNAP2, Q9UHC6]", "Result": 4.63}
{"Binder": "PPGKHLVTEV [KCNA7, Q96RP8]", "Result": "below the threshold"}
{"Binder": "QKAPTKEFYA [SDC2, P34741]", "Result": 4.39}
{"Binder": "DTKNYKQTSV [CRIPT, Q9P021]", "Result": 3.48}
{"Binder": "DGVNEKVSCV [HTR2A, P28223]", "Result": "below the threshold"}
{"Binder": "SPDRDRESIV [SCN5A, Q14524]", "Result": "below the threshold"}
{"Binder": "RQKEVRESKC [SCN8A, Q9UQD0]", "Result": "below the threshold"}
{"Binder": "NTANRRTTPV [CACNG2, Q9Y698]", "Result": "below the threshold"}
